Test system: Escherichia coli TOP10;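 note: peptides expressed intracellularly from a pBAD plasmid library in pooled LB shake-flask culture, induced with 0.3% L-arabinose, DNA abundance read by NGS, three biological replicates, DESeq2 with apeglm shrinkage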
Experiment: shrunken log2 fold change of peptide-encoding DNA abundance (4.5 h post-induction vs induction); higher = less antimicrobial activity (less host growth inhibition)
Conditions: time post-induction: 4.5 h; library: site-saturation at positions 5, 18, 19, 20
// label = YES if shrunken log2 fold change is not less than -0.08, otherwise NO

# sequence record, class
measured = [
    ("RRIRSRPPRLPRPRPRPRAFPRP", "YES"),
    ("RRIRFRPPRLPRPRPRPSQMPRP", "NO"),
    ("RRIRVRPPRLPRPRPRPVGHPRP", "NO"),
    ("RRIRVRPPRLPRPRPRPWPGPRP", "YES"),
    ("RRIRGRPPRLPRPRPRPDLHPRP", "YES"),
    ("RRIRPRPPRLPRPRPRPQTSPRP", "YES"),
    ("RRIRMRPPRLPRPRPRPHILPRP", "YES"),
    ("RRIRMRPPRLPRPRPRPTAFPRP", "YES"),
    ("RRIRPRPPRLPRPRPRPLEDPRP", "YES"),
    ("RRIRERPPRLPRPRPRPAAKPRP", "YES"),
    ("RRIRYRPPRLPRPRPRPTDLPRP", "NO"),
    ("RRIRKRPPRLPRPRPRPMEHPRP", "YES"),
    ("RRIRARPPRLPRPRPRPSKIPRP", "NO"),
    ("RRIRLRPPRLPRPRPRPYNPPRP", "NO"),
    ("RRIRARPPRLPRPRPRPGIYPRP", "NO"),
    ("RRIRYRPPRLPRPRPRPVYYPRP", "NO"),
    ("RRIRTRPPRLPRPRPRPQKWPRP", "NO"),
    ("RRIRARPPRLPRPRPRPYQPPRP", "YES"),
    ("RRIRNRPPRLPRPRPRPPEYPRP", "NO"),
    ("RRIRIRPPRLPRPRPRPVFKPRP", "NO"),
    ("RRIRERPPRLPRPRPRPDMYPRP", "YES"),
    ("RRIRARPPRLPRPRPRPRFCPRP", "YES"),
    ("RRIRWRPPRLPRPRPRPLIQPRP", "YES"),
    ("RRIRHRPPRLPRPRPRPNTMPRP", "NO"),
    ("RRIRTRPPRLPRPRPRPAHSPRP", "YES"),
    ("RRIRYRPPRLPRPRPRPWNVPRP", "YES"),
    ("RRIRQRPPRLPRPRPRPMYHPRP", "NO"),
    ("RRIRARPPRLPRPRPRPPIPPRP", "YES"),
    ("RRIRWRPPRLPRPRPRPGEWPRP", "YES"),
    ("RRIRARPPRLPRPRPRPSHVPRP", "NO"),
    ("RRIRARPPRLPRPRPRPLYPPRP", "NO"),
    ("RRIRLRPPRLPRPRPRPTFGPRP", "YES"),
    ("RRIRRRPPRLPRPRPRPLHRPRP", "YES"),
    ("RRIRDRPPRLPRPRPRPQGTPRP", "YES"),
    ("RRIRNRPPRLPRPRPRPEWMPRP", "YES"),
    ("RRIRERPPRLPRPRPRPGWWPRP", "YES"),
    ("RRIRMRPPRLPRPRPRPFMKPRP", "YES"),
    ("RRIRLRPPRLPRPRPRPATNPRP", "NO"),
    ("RRIRKRPPRLPRPRPRPLRGPRP", "YES"),
    ("RRIRTRPPRLPRPRPRPMLPPRP", "YES"),
    ("RRIRPRPPRLPRPRPRPMWYPRP", "NO"),
    ("RRIRARPPRLPRPRPRPPMAPRP", "YES"),
    ("RRIRPRPPRLPRPRPRPNVRPRP", "NO"),
    ("RRIRERPPRLPRPRPRPDWLPRP", "YES"),
    ("RRIRIRPPRLPRPRPRPMSYPRP", "YES"),
    ("RRIRVRPPRLPRPRPRPEGNPRP", "YES"),
    ("RRIRHRPPRLPRPRPRPIEWPRP", "YES"),
    ("RRIRCRPPRLPRPRPRPVHCPRP", "YES"),
    ("RRIRTRPPRLPRPRPRPICWPRP", "NO"),
    ("RRIRWRPPRLPRPRPRPSEIPRP", "NO"),
    ("RRIRLRPPRLPRPRPRPAAFPRP", "YES"),
    ("RRIRGRPPRLPRPRPRPYTPPRP", "NO"),
    ("RRIRQRPPRLPRPRPRPPSIPRP", "YES"),
    ("RRIRLRPPRLPRPRPRPNNSPRP", "NO"),
    ("RRIRGRPPRLPRPRPRPIPIPRP", "YES"),
    ("RRIRCRPPRLPRPRPRPAPVPRP", "YES"),
    ("RRIRPRPPRLPRPRPRPWPKPRP", "YES"),
    ("RRIRFRPPRLPRPRPRPGYTPRP", "NO"),
]

Sourced from the supplement of paper PMC9112550
